src = patent US7482348B2

Ki values by entry
Target: α1d-AR (Homo sapiens, UniProt P25100)
Construct: expressed in transfected cells; host or cells: COS-7 (African green monkey kidney) membranes
Sequence (P25100 whole entry): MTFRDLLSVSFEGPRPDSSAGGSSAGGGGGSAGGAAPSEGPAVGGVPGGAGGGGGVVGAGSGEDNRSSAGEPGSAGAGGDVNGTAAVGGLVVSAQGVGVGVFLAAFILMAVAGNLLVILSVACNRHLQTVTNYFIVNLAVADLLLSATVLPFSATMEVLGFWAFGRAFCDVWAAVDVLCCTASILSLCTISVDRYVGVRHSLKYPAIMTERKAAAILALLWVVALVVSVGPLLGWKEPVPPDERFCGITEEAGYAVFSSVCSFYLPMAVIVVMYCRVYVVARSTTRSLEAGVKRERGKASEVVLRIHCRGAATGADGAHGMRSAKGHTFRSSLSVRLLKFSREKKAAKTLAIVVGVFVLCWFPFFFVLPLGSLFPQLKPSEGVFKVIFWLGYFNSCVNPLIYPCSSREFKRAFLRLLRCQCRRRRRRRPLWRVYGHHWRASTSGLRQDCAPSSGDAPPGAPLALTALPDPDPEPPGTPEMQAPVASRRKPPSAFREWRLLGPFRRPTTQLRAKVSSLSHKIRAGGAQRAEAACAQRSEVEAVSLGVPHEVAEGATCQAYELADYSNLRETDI
Experiment: α1-Adrenergic receptor radio-ligand (125I-HEAT) binding assay, α1d subtype
Settings: membranes of transfected COS-7 cells, 125I-HEAT 50 pM

These solved cases illustrate the format of a correct answer.
COc1ccc(Cl)cc1S(=O)(=O)N[C@H]1CC[C@@H](N2CCN(c3ncccc3OC(C)C)CC2)CC1    12.4 nM
COc1ccc(Cl)cc1S(=O)(=O)N[C@H]1CC[C@@H](N2CCN(c3ncccc3OCC3CC3)CC2)CC1    48.3 nM
COc1ccc(S(=O)(=O)N[C@H]2CC[C@@H](N3CCN(c4ncccc4OC(C)C)CC3)CC2)cc1OC    19 nM

# ---- query compound ----
Provide the documented Ki with α1d-AR (Homo sapiens, UniProt P25100) as the system for CC(C)Oc1cccnc1N1CCN([C@H]2CC[C@@H](NS(=O)(=O)c3cc(Cl)ccc3F)CC2)CC1
15.3 nM
